Target: PD-1-Ig binding to PD-L1-TVMV-His (PD-L1-His) (Homo sapiens)
Construct: hPDL1(19-239)-TVMV-His; made in house; host or cells: HEK293T cells
Assay: PD-1/PD-L1 Homogenous Time-Resolved Fluorescence (HTRF) binding assay
Conditions: PD-1-Ig (20 nM) / PD-L1-His (10 nM); range classes
Source text: The ability of the macrocyclic peptides of the present disclosure to bind to PD-L1 was investigated using a PD-1/PD-L1 Homogenous Time-Resolved Fluorescence (HTRF) binding assay. Homogenous Time-Resolved Fluorescence (HTRF) Assays of Binding of Soluble PD-1 to Soluble PD-L1. […]
Reported property: IC50

Query `CCCC[C@H]1C(=O)N(C)[C@@H](CCCC)C(=O)N[C@@H](C)C(=O)N[C@H](C(=O)NCC(N)=O)CNCC(=O)N[C@@H](Cc2ccc(O)cc2)C(=O)N(C)[C@@H](C)C(=O)N[C@@H](CC(=O)O)C(=O)N2CCC[C@H]2C(=O)N[C@@H](Cc2cnc[nH]2)C(=O)N[C@@H](CCC(N)=O)C(=O)N2C[C@H](O)C[C@H]2C(=O)N[C@@H](Cc2c[nH]c3ccccc23)C(=O)N[C@@H](CO)C(=O)N[C@@H](Cc2c[nH]c3ccccc23)C(=O)N1C` yields IC50 of 1 to 9.9 nM

====

Target: PD-1-Ig binding to PD-L1-TVMV-His (PD-L1-His) (Homo sapiens, UniProt Q9NZQ7)
Construct: hPDL1(19-239)-TVMV-His; made in house; host or cells: HEK293T cells
Sequence (Q9NZQ7 with tags, fused parts or gaps): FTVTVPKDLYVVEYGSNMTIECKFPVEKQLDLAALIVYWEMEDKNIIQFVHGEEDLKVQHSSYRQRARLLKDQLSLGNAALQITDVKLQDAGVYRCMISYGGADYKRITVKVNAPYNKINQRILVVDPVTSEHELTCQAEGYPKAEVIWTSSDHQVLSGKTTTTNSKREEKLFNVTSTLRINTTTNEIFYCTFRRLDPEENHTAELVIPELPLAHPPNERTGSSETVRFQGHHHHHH
Experiment: PD-1/PD-L1 Homogenous Time-Resolved Fluorescence (HTRF) binding assay
Settings: PD-1-Ig (20 nM) / PD-L1-His (10 nM); range classes
Text: The ability of the macrocyclic peptides of the present disclosure to bind to PD-L1 was investigated using a PD-1/PD-L1 Homogenous Time-Resolved Fluorescence (HTRF) binding assay. Homogenous Time-Resolved Fluorescence (HTRF) Assays of Binding of Soluble PD-1 to Soluble PD-L1. […]
Non-standard residues stand in square brackets, D forms with d. Residues, ends and D or L forms follow the SMILES beside them. Trp(1-CH2COOH) = N[C@@H](Cc1cn(CC(=O)O)c2ccccc12)C(=O)O; Phe(4-F) = N[C@@H](Cc1ccc(F)cc1)C(=O)O; Hyp = O=C(O)[C@@H]1C[C@@H](O)CN1; NMeNle = CCCC[C@H](NC)C(=O)O; Pip = O=C(O)[C@@H]1CCCCN1; Dab = NCC[C@H](N)C(=O)O; Dap = NC[C@H](N)C(=O)O; Ava = NCCCCC(=O)O
Reported property: IC50

Consider the following items and state reported IC50 for each.
1. CCCC[C@H]1C(=O)N(C)[C@@H](CCCC)C(=O)N[C@@H](CC(C)C)C(=O)NCCCCC(=O)N[C@@H](Cc2ccc(F)cc2)C(=O)N2CCCC[C@H]2C(=O)N[C@@H](CC(N)=O)C(=O)N2CCC[C@H]2C(=O)N[C@@H](CN)C(=O)N[C@@H](CCC(=O)O)C(=O)N2C[C@H](O)C[C@H]2C(=O)N[C@@H](Cc2c[nH]c3ccccc23)C(=O)N[C@@H](CCN)C(=O)N[C@@H](Cc2cn(CC(=O)O)c3ccccc23)C(=O)N1C [Example 10543] (cyclo([Ava][Phe(4-F)][Pip]NP[Dap]E[Hyp]W[Dab][Trp(1-CH2COOH)][NMeNle][NMeNle]L))
2. CCCC[C@H]1C(=O)N(C)[C@@H](CCCC)C(=O)N[C@@H](CC(C)C)C(=O)N[C@H](C(N)=O)CNCC(=O)N[C@@H](Cc2ccc(F)cc2)C(=O)N2CCCC[C@H]2C(=O)N[C@@H](CC(N)=O)C(=O)N2CCCC2C(=O)N[C@@H](Cc2c[nH]cn2)C(=O)N[C@@H](CCC(N)=O)C(=O)N2C[C@H](O)C[C@H]2C(=O)N[C@@H](Cc2c[nH]c3ccccc23)C(=O)N[C@@H](C)C(=O)N[C@@H](Cc2cn(CC(=O)O)c3ccccc23)C(=O)N1C (stereo partly drawn)
3. CCCC[C@H]1C(=O)N(C)[C@@H](CCCC)C(=O)N[C@@H](CCC(=O)O)C(=O)N[C@H](C(N)=O)CNCC(=O)N[C@@H](Cc2ccc(F)cc2)C(=O)N2CCCC[C@H]2C(=O)N[C@@H](CC(N)=O)C(=O)N2CCC[C@H]2C(=O)N[C@@H](Cc2c[nH]cn2)C(=O)N[C@@H](CCC(N)=O)C(=O)N2C[C@H](O)C[C@H]2C(=O)N[C@@H](Cc2c[nH]c3ccccc23)C(=O)N[C@@H](C)C(=O)N[C@@H](Cc2cn(CC(=O)O)c3ccccc23)C(=O)N1C

1 to 9.9 nM
1 to 9.9 nM
1 to 9.9 nM

meta.source: patent US9732119B2
